# System: Escherichia coli TOP10
# experimental_protocol: shrunken log2 fold change of peptide-encoding DNA abundance (4.5 h post-induction vs induction); higher = less antimicrobial activity (less host growth inhibition)
# conditions: time post-induction: 4.5 h; library: site-saturation at positions 5, 18, 19, 20
experimental_endpoint: shrunken log2 fold change
Numbers only.

Below, 8 sequences whose answers are already recorded.
            sequence_input     experimental_system  assay_value
0  RRIRGRPPRLPRPRPRPPIYPRP  Escherichia coli TOP10        0.132
1  RRIRDRPPRLPRPRPRPEFHPRP  Escherichia coli TOP10        0.858
2  RRIRTRPPRLPRPRPRPSIYPRP  Escherichia coli TOP10       -0.513
3  RRIRCRPPRLPRPRPRPIIQPRP  Escherichia coli TOP10       -0.465
4  RRIRIRPPRLPRPRPRPWYIPRP  Escherichia coli TOP10      -0.0639
5  RRIRERPPRLPRPRPRPNVKPRP  Escherichia coli TOP10       -0.195
6  RRIRARPPRLPRPRPRPMGPPRP  Escherichia coli TOP10        0.161
7  RRIRWRPPRLPRPRPRPEDLPRP  Escherichia coli TOP10      -0.0249

I need shrunken log2 fold change for every entry listed below, if you could help.
1. RRIRIRPPRLPRPRPRPKSAPRP
2. RRIRERPPRLPRPRPRPQSMPRP
3. RRIRCRPPRLPRPRPRPHPRPRP
4. RRIRIRPPRLPRPRPRPDERPRP
5. RRIRGRPPRLPRPRPRPTWGPRP
6. RRIRSRPPRLPRPRPRPYSPPRP

### Response
1. -0.0724
2. -0.0801
3. 0.444
4. -0.0172
5. 0.469
6. -0.839

Each sequence below has a reported value. Please supply its shrunken log2 fold change.
1. RRIRYRPPRLPRPRPRPESFPRP
2. RRIRQRPPRLPRPRPRPQIGPRP
3. RRIRQRPPRLPRPRPRPKGEPRP
4. RRIRRRPPRLPRPRPRPYNEPRP
5. RRIRGRPPRLPRPRPRPMFTPRP
6. RRIRMRPPRLPRPRPRPCNFPRP
7. RRIRKRPPRLPRPRPRPEHSPRP

### Response
1: -0.0275; 2: -0.0384; 3: -0.031; 4: -0.103; 5: 0.522; 6: -0.415; 7: 0.00628

###

# System: Escherichia coli TOP10
# experimental_protocol: shrunken log2 fold change of peptide-encoding DNA abundance (4.5 h post-induction vs induction); higher = less antimicrobial activity (less host growth inhibition)
# conditions: time post-induction: 4.5 h; library: site-saturation at positions 5, 18, 19, 20
I'd be grateful if you could share measured shrunken log2 fold change for these entries.

In [3]: df
Out[3]:
            sequence_input  assay_value
0  RRIRDRPPRLPRPRPRPKVRPRP      0.00434

Below are some sequences; for each one, tell me its shrunken log2 fold change.
1. RRIRQRPPRLPRPRPRPIHVPRP
2. RRIRLRPPRLPRPRPRPIGLPRP
3. RRIRQRPPRLPRPRPRPMYAPRP
4. RRIRHRPPRLPRPRPRPWGMPRP
5. RRIRGRPPRLPRPRPRPQIFPRP
6. RRIRDRPPRLPRPRPRPPEWPRP
7. RRIRLRPPRLPRPRPRPAFPPRP

### Response
[-0.15, 0.00285, 0.151, -0.0998, -0.0563, 0.557, 0.0371]

I would be grateful if you could provide shrunken log2 fold change for each of the following entries.
1. RRIRRRPPRLPRPRPRPMMSPRP
2. RRIRYRPPRLPRPRPRPRWEPRP
3. RRIRYRPPRLPRPRPRPHIRPRP
4. RRIRTRPPRLPRPRPRPAFDPRP
5. RRIRLRPPRLPRPRPRPFCLPRP
6. RRIRARPPRLPRPRPRPNRGPRP
7. RRIRIRPPRLPRPRPRPCRDPRP

### Response
1: 0.0352; 2: -0.0931; 3: -0.206; 4: 0.161; 5: -0.485; 6: 0.108; 7: -0.132

// each sequence listed below needs its shrunken log2 fold change
1. RRIRHRPPRLPRPRPRPTNIPRP
2. RRIRIRPPRLPRPRPRPRGEPRP
3. RRIRHRPPRLPRPRPRPLLEPRP

### Response
1. -0.135
2. 0.0673
3. 0.0851

###

# System: Escherichia coli TOP10
# experimental_protocol: shrunken log2 fold change of peptide-encoding DNA abundance (4.5 h post-induction vs induction); higher = less antimicrobial activity (less host growth inhibition)
# conditions: time post-induction: 4.5 h; library: site-saturation at positions 5, 18, 19, 20
Using shrunken log2 fold change as the sorting value, the categories are low end (below -0.2), middle (-0.2 to below 0.06), high end (0.06 or more)

Record excerpt, results attached:
            sequence_input  assigned_label
0  RRIRPRPPRLPRPRPRPANTPRP         low end
1  RRIRTRPPRLPRPRPRPLIMPRP         low end
2  RRIRTRPPRLPRPRPRPSKKPRP          middle
3  RRIRNRPPRLPRPRPRPPCEPRP        high end
4  RRIRWRPPRLPRPRPRPVQDPRP          middle
5  RRIRQRPPRLPRPRPRPSMCPRP          middle
6  RRIRKRPPRLPRPRPRPWIGPRP        high end
7  RRIRERPPRLPRPRPRPKIHPRP         low end

### Prompt Into which bin does this sequence go? RRIRHRPPRLPRPRPRPKQLPRP
### Response low end

### Prompt Category of RRIRHRPPRLPRPRPRPHWIPRP :
### Response low end

### Prompt For this sequence, which bin applies? RRIRVRPPRLPRPRPRPFNNPRP
### Response middle

### Prompt Form: Item = RRIRIRPPRLPRPRPRPHMEPRP ; Class = ?
### Response low end

### Prompt Textbook exercise: identify the category of the sequence given here, RRIRMRPPRLPRPRPRPEETPRP , according to its measured value.
### Response middle

### Prompt Field: class (shrunken log2 fold change) — entry: RRIRGRPPRLPRPRPRPGNTPRP
### Response high end

### Prompt Hello team, could you let me know which band the following sequence falls into: RRIRSRPPRLPRPRPRPHLKPRP
### Response middle

###

# System: Escherichia coli TOP10
# experimental_protocol: shrunken log2 fold change of peptide-encoding DNA abundance (4.5 h post-induction vs induction); higher = less antimicrobial activity (less host growth inhibition)
# conditions: time post-induction: 4.5 h; library: site-saturation at positions 5, 18, 19, 20
Would you kindly list shrunken log2 fold change for each of these sequences?

Example sequences with recorded shrunken log2 fold change:
>>> df
            sequence_input     experimental_system  assay_value
0  RRIRNRPPRLPRPRPRPSIMPRP  Escherichia coli TOP10       -0.611
1  RRIRRRPPRLPRPRPRPDNHPRP  Escherichia coli TOP10       -0.215
2  RRIRWRPPRLPRPRPRPVEIPRP  Escherichia coli TOP10       -0.206
3  RRIRERPPRLPRPRPRPLERPRP  Escherichia coli TOP10       -0.191
4  RRIRLRPPRLPRPRPRPDTCPRP  Escherichia coli TOP10       -0.149

For every listed record, write down its shrunken log2 fold change.
1. RRIRRRPPRLPRPRPRPFHDPRP
2. RRIRLRPPRLPRPRPRPSVPPRP

### Response
1. -0.307
2. -0.185

# per-item lookup of shrunken log2 fold change; items listed below
1. RRIRRRPPRLPRPRPRPHKRPRP
2. RRIRWRPPRLPRPRPRPWWIPRP
3. RRIRHRPPRLPRPRPRPSMKPRP

### Response
0.124
0.109
-0.436

###

Please respond with reported shrunken log2 fold change for every item in the list.
# Tested on: Escherichia coli TOP10;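 note: peptides expressed intracellularly from a pBAD plasmid library in pooled LB shake-flask culture, induced with 0.3% L-arabinose, DNA abundance read by NGS, three biological replicates, DESeq2 with apeglm shrinkage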
# experimental_protocol: shrunken log2 fold change of peptide-encoding DNA abundance (4.5 h post-induction vs induction); higher = less antimicrobial activity (less host growth inhibition)
# conditions: time post-induction: 4.5 h; library: site-saturation at positions 5, 18, 19, 20
Give bare numbers.

I have 7 sequences here; please give me shrunken log2 fold change for each one.
1. RRIRVRPPRLPRPRPRPHTHPRP
2. RRIRMRPPRLPRPRPRPQVYPRP
3. RRIRCRPPRLPRPRPRPQYWPRP
4. RRIRIRPPRLPRPRPRPCAHPRP
5. RRIRARPPRLPRPRPRPWLKPRP
6. RRIRPRPPRLPRPRPRPKGIPRP
7. RRIRTRPPRLPRPRPRPWHAPRP

### Response
-0.414
0.0985
-0.312
0.0482
-0.0421
-0.0606
0.093
